Tested on: Plasmodium falciparum
Assay: GSK_TCMDC: Inhibition of Plasmodium falciparum 3D7 in whole red blood cells, using parasite LDH activity as an index of growth. Test compounds present at 2uM
Type: functional
Inhibition values, listed per item
Express the result in % but write the number alone.

Completed entries (count: 8):
{"record smiles": "CC(C)CCN1CCC(Oc2ccc(NC(=O)c3ccsc3)cc2Cl)CC1.O=C(O)C(F)(F)F", "unit spec": "%", "Inhibition": 89}
{"record smiles": "Cc1[nH]c(C)c(-c2ccc(-c3ccc(C#N)cc3)nc2)c(=O)c1Br", "unit spec": "%", "Inhibition": 97}
{"record smiles": "CCN(CC)c1ccc(C(=O)Cn2ccc(=N)cc2)cc1", "unit spec": "%", "Inhibition": 84}
{"record smiles": "O=C(Nc1cccc(-c2ccc(-c3nc4cc(C(F)(F)F)ccc4[nH]3)cc2)c1)c1csnn1", "unit spec": "%", "Inhibition": 98}
{"record smiles": "CCOc1ccc(-c2noc(-c3c[nH]c4ccccc4c3=O)n2)cc1", "unit spec": "%", "Inhibition": 99}
{"record smiles": "COc1ccc(Nc2nccc(-c3ccc(NC(=O)c4cc5cc(F)ccc5[nH]4)cc3)n2)cc1", "unit spec": "%", "Inhibition": 91}
{"record smiles": "CC(C)CCn1c(Sc2ccc(C#N)c([N+](=O)[O-])c2)nnc1-c1ccc(Cl)cc1", "unit spec": "%", "Inhibition": 90}
{"record smiles": "COc1cc(NCCCNCc2cn(Cc3cc(Br)cc(Br)c3)c3ccccc23)nc2ccccc12", "unit spec": "%", "Inhibition": 100}

stdin: What value of measured Inhibition is listed for Br.CC1(C)NC(N)=NC(=N)N1OCCCOc1ccccc1N ?
stdout: 93

* * *

System: Plasmodium falciparum
Assay: GSK_TCMDC: Inhibition of Plasmodium falciparum 3D7 in whole red blood cells, using parasite LDH activity as an index of growth. Test compounds present at 2uM
Format: functional
Each entry below carries its reported Inhibition.
Quick note: give the figure in %, leave out the unit.

stdin: Please report the recorded Inhibition for O=C(O)C(F)(F)F.c1cncc(CCNCc2cccc(-c3ccc(-c4nc5ccccc5[nH]4)s3)c2)c1 .
stdout: 100

stdin: Which measured Inhibition value corresponds to Cc1cc(N2CCCC2)nc(Nc2ccc(NC(=O)COc3ccccc3)cc2)n1 ?
stdout: 100

stdin: I would be grateful if you could share the reported Inhibition for CN(c1ccc(NC(=O)Nc2cc(C(C)(C)C)on2)cc1)c1ccnc(NCCN2CCOCC2)n1.O=C(O)C(F)(F)F .
stdout: 95

stdin: Field request: Inhibition | item: CCCCNC(=O)[C@H](CC1CCCCC1)NC(=O)c1ccc(O)c(-c2ccc(Cl)c(Cl)c2)c1
stdout: 98

stdin: Given the entry Cl.Cn1c(=O)n(C)c2cc(CNCCNc3ccnc4cc(Cl)ccc34)ccc21 , report its measured Inhibition.
stdout: 100

* * *

Tested on: Plasmodium falciparum
Test: GSK_TCMDC: Inhibition of Plasmodium falciparum Dd2 in whole red blood cells, using parasite LDH activity as an index of growth. Test compounds present at 2uM
Assay type: functional
quantity measured: Inhibition
Your reply should be a number followed by the unit it is expressed in.

Completed entries (count: 3):
{"compound": "COc1cccc(Nc2nc(N)c3ccccc3n2)c1.Cl", "Inhibition": "47%"}
{"compound": "CCCC(=O)c1cnc2c(Oc3cc(Cl)ncn3)cccc2c1Nc1ccccc1C", "Inhibition": "85%"}
{"compound": "O=C(NCCCCN1CCC(c2ccc(-c3ccco3)cc2)CC1)c1ccc(NC(=O)c2ccc(Cl)cc2)cc1", "Inhibition": "97%"}

stdin: Reported Inhibition for COc1ccc2nc(C)cc(Nc3ccc(Cl)c(Cl)c3)c2c1 : what is it?
stdout: 99%

stdin: Value lookup for Inhibition; key = CN1CCC(NCCS(=O)(=O)c2cccc(Nc3ccc(-c4cccc(F)c4)cn3)c2)CC1
stdout: 0%

stdin: # get_value(readout='Inhibition', item= CC(C)CN(c1nc(C(=O)NNC(=O)[C@H](CC2CC2)NC(=O)c2cc3cc(OCCN(C)C)ccc3o2)cs1)C1CC1 )
stdout: 97%

stdin: Inhibition lookup needed for N=C(N)NC(=O)Nc1cc(Br)c(Cl)c(C(F)(F)F)c1 , thanks.
stdout: 91%

stdin: For the compound CC(C)CNCc1ccc(-c2cccc(CN(CCN(C)C)C(=O)CCC3CCCC3)c2)cc1.O=C(O)C(F)(F)F , what Inhibition is on record?
stdout: 81%

stdin: What does the record list as Inhibition for O=C(/C=C/c1ccc(Cl)c(Cl)c1)NCCCCCN1CCC(NC(=O)Nc2cccc(C(F)(F)F)c2)CC1 ?
stdout: 11%

stdin: Please report the recorded Inhibition for Cc1nnc2c(NC(=O)NC(C)C)cc3cc(-c4ccc(CN5CCCCC5)cc4)ccc3n12 .
stdout: 8%

stdin: Entry Cc1cc(NC(=O)c2ccco2)ccc1OC1CCN(Cc2ccc(F)cc2)C1.O=C(O)C(F)(F)F (stereo not given) has what Inhibition?
stdout: 92%

stdin: What measured Inhibition goes with CN1CCN(c2ccnc3ccc(NC(=O)c4ccc(Cl)c(Cl)c4)cc23)CC1 ?
stdout: 64%

stdin: Requested field: Inhibition. Item: O=C(NCC1CCC1)c1cnc(Nc2cccc(Cl)c2)nc1N1CCC1
stdout: 75%

stdin: Data request, read-out Inhibition, for CC(C)CCN(Cc1cncn1Cc1ccccc1F)C(=O)c1cncc(-c2ccccc2)c1
stdout: 3%

stdin: Give its Inhibition value. Item: CN1CCN(c2ccc(Cl)cc2NC(=O)C2COc3ccccc3O2)CC1 (stereo not given)
stdout: 44%

* * *

Tested on: Plasmodium falciparum
Test: GSK_TCMDC: Inhibition of Plasmodium falciparum 3D7 in whole red blood cells, using parasite LDH activity as an index of growth. Test compounds present at 2uM
Assay type: functional
The reader will find reported Inhibition values listed item by item below.
Report only the number, with the unit % understood.

Below: 8 compounds and their reported Inhibition.
{"compound": "COc1cccc2cc(C(=O)N[C@@H](CC(C)C)C(=O)N[C@H](C=NN3CCOC3=O)Cc3ccccc3)oc12", "quantity measured": "Inhibition", "reported measurement": 96}
{"compound": "c1ccc(-c2cccnn2)cc1", "quantity measured": "Inhibition", "reported measurement": 98}
{"compound": "CNCCNCc1cccc(-c2ccc(-c3nc4ccccc4[nH]3)s2)c1.O=C(O)C(F)(F)F", "quantity measured": "Inhibition", "reported measurement": 99}
{"compound": "CC[C@H](C)CNC(=O)c1cncc(-c2ccc(CNCC3CNCCCO3)cc2)c1.O=C(O)C(F)(F)F (stereo partly specified)", "quantity measured": "Inhibition", "reported measurement": 100}
{"compound": "COc1cc2nccc(Nc3ccc4c(cnn4Cc4cccc(F)c4)c3)c2cc1OC.Cl", "quantity measured": "Inhibition", "reported measurement": 100}
{"compound": "CC[C@H](NC(=O)c1ccc(NC(=O)OC(C)(C)C)cc1)C(=O)N[C@@H](CO)C(=O)NCCCCc1ccccc1", "quantity measured": "Inhibition", "reported measurement": 98}
{"compound": "COc1ccc2nc(C)cc(Nc3ccc(Cl)c(Cl)c3)c2c1", "quantity measured": "Inhibition", "reported measurement": 100}
{"compound": "Cl.O=C1c2ccccc2CN1CCCN1CCC(Oc2ccc(F)cc2)CC1", "quantity measured": "Inhibition", "reported measurement": 97}

stdin: GET /values?readout=Inhibition&item= CC(C)(C)OC(=O)N1CCN(c2ccccc2NC(=O)c2cccc(C(F)(F)F)c2Oc2ccc(F)cc2)CC1
stdout: 100

stdin: Recorded Inhibition for CC(Cc1ccc(NC(=O)c2ccc(CNCCc3ccccc3)cc2)cc1)NCCc1cccc(Cl)c1.Cl (stereo unspecified) , please?
stdout: 100

stdin: // query Inhibition value for entry O=C(N/C=N/c1cc([N+](=O)[O-])c(-c2ccncc2)n1-c1ccccc1)c1cccc(O)c1
stdout: 100

* * *

System: Plasmodium falciparum
Test: GSK_TCMDC: Inhibition of Plasmodium falciparum 3D7 in whole red blood cells, using parasite LDH activity as an index of growth. Test compounds present at 2uM
Format: functional
Inhibition values by entry
Numeric only. Scale: %

See these solved cases before continuing.
{"compound": "Cc1ccc(NC(=O)Nc2ccc(Cl)c(C(F)(F)F)c2)cc1-c1ccc(C(=O)NCCN2CCOCC2)cc1", "experimental target": "Plasmodium falciparum", "quantity measured": "Inhibition", "reported measurement": 98}
{"compound": "COc1cc2nc(SCC(C)C)n(CCCn3ccnc3)c(=N)c2cc1OC", "experimental target": "Plasmodium falciparum", "quantity measured": "Inhibition", "reported measurement": 99}
{"compound": "COc1ccc2ncc(C#N)c(CCN3CCC(NCc4cnc5c(c4)OCCO5)CC3)c2n1.Cl", "experimental target": "Plasmodium falciparum", "quantity measured": "Inhibition", "reported measurement": 91}
{"compound": "O=C(c1ccco1)c1cn(CCOc2ccccc2)c2ccccc12", "experimental target": "Plasmodium falciparum", "quantity measured": "Inhibition", "reported measurement": 98}
{"compound": "Cl.Cn1ncc2c3c(CCN4CCC(NCc5cc6c(cn5)OCCO6)CC4)c(Cl)cnc3ccc21", "experimental target": "Plasmodium falciparum", "quantity measured": "Inhibition", "reported measurement": 95}
{"compound": "CN(C)CC(O)COc1ccc(Nc2ncc([N+](=O)[O-])c(Nc3ccccc3O)n2)cc1.O=C(O)C(F)(F)F (stereo not given)", "experimental target": "Plasmodium falciparum", "quantity measured": "Inhibition", "reported measurement": 100}

stdin: I have this compound here, CNC(=O)c1cnc(Nc2ccc(OCC(O)CN(C)C)cc2)nc1Nc1cccc(Br)c1.O=C(O)C(F)(F)F (stereo not given) , and I need its recorded Inhibition.
stdout: 100

stdin: // lookup Inhibition for CCNc1cc(C(=O)N[C@@H](Cc2ccccc2)[C@H](O)CNCC(C)C)cc(N2CCCC2=O)c1
stdout: 98

Values compiled from ChEMBL document CHEMBL1157539.
